For each entry below, report its Concentration in retina value.
test-parameters: in vivo
The response must be a number in ng per mg retina with no trailing unit.

Q: Fill in the blank: the reported Concentration in retina of "CC1=C(/C=C/C(C)=C/C=C/C(C)=C/CO)C(C)(C)CCC1" is ____.
Ans: 5.8

Q: Fill in the blank: the reported Concentration in retina of Cc1c(C)c2c(c(C)c1O)CCC(C)(CCCC(C)CCCC(C)CCCC(C)C)O2 (stereo not shown) is ____.
Ans: 15.6

Q: Fill in the blank: the reported Concentration in retina of "CC1=C[C@H](O)CC(C)(C)[C@H]1/C=C/C(C)=C/C=C/C(C)=C/C=C/C=C(C)/C=C/C=C(C)/C=C/C1=C(C)C[C@@H](O)CC1(C)C" is ____.
Ans: 1.0

Q: Fill in the blank: the reported Concentration in retina of CC(C=CC=C(C)C=CC1=C(C)CCCC1(C)C)=CC=CC=C(C)C=CC=C(C)C=CC1C(C)=CC(O)CC1(C)C (stereo not shown) is ____.
Ans: 1.4
